Molecular target: GRK2 (Homo sapiens, UniProt P25098)
Sequence (P25098 1-689): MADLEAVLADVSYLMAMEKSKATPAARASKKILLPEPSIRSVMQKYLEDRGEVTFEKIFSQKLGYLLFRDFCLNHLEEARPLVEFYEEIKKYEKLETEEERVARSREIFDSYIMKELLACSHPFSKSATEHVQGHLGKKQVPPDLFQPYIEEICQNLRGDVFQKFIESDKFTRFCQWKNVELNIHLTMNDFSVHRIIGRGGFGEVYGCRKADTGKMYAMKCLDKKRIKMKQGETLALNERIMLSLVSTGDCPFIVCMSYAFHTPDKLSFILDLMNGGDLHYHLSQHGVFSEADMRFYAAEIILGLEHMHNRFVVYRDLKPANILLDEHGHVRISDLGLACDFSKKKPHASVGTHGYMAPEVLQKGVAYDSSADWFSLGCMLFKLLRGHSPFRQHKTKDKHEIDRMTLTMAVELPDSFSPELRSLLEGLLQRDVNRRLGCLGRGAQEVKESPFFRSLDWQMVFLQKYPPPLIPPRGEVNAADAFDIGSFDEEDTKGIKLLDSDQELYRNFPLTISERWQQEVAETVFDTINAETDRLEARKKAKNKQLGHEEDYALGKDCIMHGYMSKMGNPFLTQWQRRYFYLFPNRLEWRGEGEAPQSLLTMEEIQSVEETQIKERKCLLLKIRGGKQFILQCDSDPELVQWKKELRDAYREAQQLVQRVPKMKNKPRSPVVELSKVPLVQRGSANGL
Experiment: biochemical
Settings: 10 nM GRK2; ATP 30 or 600 μM, not stated which; read-out: GRK2 Lancer IC50
pIC50: −log10 of the molar value.
endpoint.name: pIC50

>>> value_observed("COc1cccc(Cn2cnc3ccc(-c4cn[nH]c4)cc3c2=O)c1")
8.22
